# target.of.assay: human adenosine A3 receptors (Homo sapiens)
# Construct: expressed in transfected cells; host or cells: HEK293
# Sequence (P0DMS8 1-318): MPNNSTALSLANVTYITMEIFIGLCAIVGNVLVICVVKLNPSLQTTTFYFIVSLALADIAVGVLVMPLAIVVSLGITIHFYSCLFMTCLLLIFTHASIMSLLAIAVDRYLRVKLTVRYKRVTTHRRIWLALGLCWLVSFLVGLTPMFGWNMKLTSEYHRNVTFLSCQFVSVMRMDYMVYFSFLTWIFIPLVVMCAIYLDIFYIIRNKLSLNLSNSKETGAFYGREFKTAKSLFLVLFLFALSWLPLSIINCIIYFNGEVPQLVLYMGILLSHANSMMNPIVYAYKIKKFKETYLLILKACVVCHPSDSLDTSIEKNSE
# run.description: Test of adenosine A3 receptor binding ([125I]AB-MECA, transfected HEK293 cell homogenate)
# condition.parameters: read-out: The rate of inhibition (%) 10^-8 M
Structures can show the parent of a compound that is named as a salt.
# label = satisfied if inhibition at 0.01 µM >= 80% else not satisfied

Example results:
Q. Determine whether measured inhibition at 0.01 µM meets or exceeds 80% for CCN1C(=O)N2CC(C)N=C2c2[nH]c(-c3ccc(Br)cc3)nc21 (centres unmarked) [Compound 3, hydrochloride]
A. not satisfied

Q. Now give it for CCC1CN2C(=O)N(CC)c3nc(-c4ccc(Br)cc4)[nH]c3C2=N1 (centres unmarked) [Compound 4, hydrochloride] too.
A. not satisfied

Q. Now give it for CCC1CN2C(=O)N(C)c3nc(-c4ccc(Br)cc4)[nH]c3C2=N1 (centres unmarked) [Compound 25, hydrochloride] too.
A. satisfied

Q. Now give it for CCCCN1C(=O)N2CCN=C2c2[nH]c(-c3ccc(Br)cc3)nc21 [Compound 26, hydrochloride] too.
A. satisfied

We now examine a further compound.
Q. Determine whether measured inhibition at 0.01 µM meets or exceeds 80% for CCN1C(=O)N2CCN=C2c2[nH]c(-c3ccc(Br)cc3)nc21 [Compound 1, hydrochloride]
A. satisfied

* * *

# target.of.assay: human adenosine A3 receptors (Homo sapiens)
# Construct: expressed in transfected cells; host or cells: HEK293
# Sequence (P0DMS8 1-318): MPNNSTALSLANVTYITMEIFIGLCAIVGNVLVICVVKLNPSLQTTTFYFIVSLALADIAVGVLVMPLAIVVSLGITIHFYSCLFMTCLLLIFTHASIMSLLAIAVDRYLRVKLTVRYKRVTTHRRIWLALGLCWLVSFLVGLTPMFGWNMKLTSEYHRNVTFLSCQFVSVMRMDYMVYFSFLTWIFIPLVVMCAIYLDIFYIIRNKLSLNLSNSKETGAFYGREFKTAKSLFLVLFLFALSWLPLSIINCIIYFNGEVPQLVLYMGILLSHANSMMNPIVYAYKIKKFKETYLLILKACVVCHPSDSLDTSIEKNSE
# run.description: Test of adenosine A3 receptor binding ([125I]AB-MECA, transfected HEK293 cell homogenate)
# condition.parameters: 10^-7 M test compound; [125I]AB-MECA 0.1 nM; read-out: The rate of inhibition (%) 10^-7 M
experimental.endpoint: inhibition at 0.1 µM (%)
Answers are plain numbers, in %.

For orientation, consider the following solved cases.
Q. Quick one: inhibition at 0.1 µM of CCCN1C(=O)N2C[C@H](C(C)C)N=C2c2[nH]c(-c3ccc(Br)cc3)nc21 ?
A. 95

Q. Now give it for CCC1CN2C(=O)N(CC)c3nc(-c4ccc(/C=C/C(=O)O)cc4)[nH]c3C2=N1 (stereo not drawn) too.
A. 70

Q. Now give it for CCCN1C(=O)N2C[C@@H](c3ccccc3)N=C2c2[nH]c(-c3ccc(Br)cc3)nc21 too.
A. 52

Q. Now give it for CCOC(=O)/C=C/c1ccc(-c2nc3c([nH]2)C2=NC(CC)CN2C(=O)N3CC)cc1 (stereo not drawn) too.
A. 92

Q. Now give it for CCOC(=O)/C=C/c1ccc(-c2nc3c([nH]2)C2=NCCCN2C(=O)N3CC)cc1 too.
A. 55

Q. Now give it for CCN1C(=O)N2CCCN=C2c2[nH]c(-c3ccc(Br)cc3)nc21 too.
A. 55

Q. Now give it for CCN1C(=O)N2CCCN=C2c2[nH]c(-c3ccc(/C=C/C(=O)O)cc3)nc21 too.
A. 66

Q. Now give it for CCOC(=O)/C=C/c1ccc(-c2nc3c([nH]2)C2=NCCN2C(=O)N3CC)cc1 too.
A. 76

Now let's try a different one.
Q. Quick one: inhibition at 0.1 µM of CCCN1C(=O)N2C[C@@H](C(C)C)N=C2c2[nH]c(-c3ccc(Br)cc3)nc21 ?
A. 120

* * *

Record form. Attribute: inhibition at 0.1 µM. Fill in for each entry.
# target.of.assay: human adenosine A3 receptors (Homo sapiens)
# Construct: expressed in transfected cells; host or cells: HEK293
# run.description: Test of adenosine A3 receptor binding ([125I]AB-MECA, transfected HEK293 cell homogenate)
# condition.parameters: read-out: The rate of inhibition (%) 10^-7 M
Where a name gives a salt, the structure may show the parent alone.
Give bare numbers, in %.

For orientation, consider the following solved cases.
Q. So what inhibition at 0.1 µM did CCC1CN2C(=O)N(C)c3nc(-c4ccc(Br)cc4)[nH]c3C2=N1 (centres unmarked) [Compound 25, hydrochloride] get with human adenosine A3 receptors (Homo sapiens)?
A. 97

Q. Now give it for CCCN1C(=O)N2CC(CC)N=C2c2[nH]c(-c3ccc(Br)cc3)nc21 (centres unmarked) [Compound 8, hydrochloride] too.
A. 96

Q. Now give it for CCN1C(=O)N2CC(C)N=C2c2[nH]c(-c3ccc(Br)cc3)nc21 (centres unmarked) [Compound 3, hydrochloride] too.
A. 96

Q. Now give it for CCN1C(=O)N2CCN=C2c2[nH]c(-c3ccc(Br)cc3)nc21 [Compound 1, hydrochloride] too.
A. 97

---
Q. So what inhibition at 0.1 µM did CCC1CN2C(=O)N(CC)c3nc(-c4ccc(Br)cc4)[nH]c3C2=N1 (centres unmarked) [Compound 4, hydrochloride] get with human adenosine A3 receptors (Homo sapiens)?
A. 90

* * *

# target.of.assay: human adenosine A3 receptors (Homo sapiens)
# Construct: expressed in transfected cells; host or cells: HEK293
# run.description: Test of adenosine A3 receptor binding ([125I]AB-MECA, transfected HEK293 cell homogenate)
# condition.parameters: 10^-8 M test compound; [125I]AB-MECA 0.1 nM; read-out: The rate of inhibition (%) 10^-8 M
Where a name gives a salt, the structure may show the parent alone.
# label = Met if inhibition at 0.01 µM >= 80% else Not met

Q. Determine whether measured inhibition at 0.01 µM meets or exceeds 80% for CCCN1C(=O)N2C[C@@H](c3ccccc3)N=C2c2[nH]c(-c3ccc(Br)cc3)nc21
A. Met

Q. Now give it for CCN1C(=O)N2CCCN=C2c2[nH]c(-c3ccc(/C=C/C(=O)O)cc3)nc21 too.
A. Not met

Q. Now give it for CCCN1C(=O)N2CCCN=C2c2[nH]c(-c3ccc(Br)cc3)nc21 [Compound 6, hydrochloride] too.
A. Met

Q. Now give it for CCOC(=O)/C=C/c1ccc(-c2nc3c([nH]2)C2=NCCN2C(=O)N3CC)cc1 too.
A. Not met

Q. Now give it for CCCN1C(=O)N2C[C@H](C(C)C)N=C2c2[nH]c(-c3ccc(Br)cc3)nc21 too.
A. Met

---
Q. Determine whether measured inhibition at 0.01 µM meets or exceeds 80% for CCOC(=O)/C=C/c1ccc(-c2nc3c([nH]2)C2=NC(CC)CN2C(=O)N3CC)cc1 (stereo not shown)
A. Not met

* * *

# target.of.assay: human adenosine A3 receptors (Homo sapiens)
# Construct: expressed in transfected cells; host or cells: HEK293
# Sequence (P0DMS8 1-318): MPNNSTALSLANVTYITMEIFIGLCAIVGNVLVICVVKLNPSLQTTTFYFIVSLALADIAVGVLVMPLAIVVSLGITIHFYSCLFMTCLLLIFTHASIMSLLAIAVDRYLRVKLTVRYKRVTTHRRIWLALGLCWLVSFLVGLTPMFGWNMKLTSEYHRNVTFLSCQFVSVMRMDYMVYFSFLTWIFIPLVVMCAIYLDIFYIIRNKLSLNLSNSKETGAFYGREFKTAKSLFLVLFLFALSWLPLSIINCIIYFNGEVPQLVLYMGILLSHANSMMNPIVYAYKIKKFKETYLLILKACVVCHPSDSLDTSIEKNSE
# run.description: Test of adenosine A3 receptor binding ([125I]AB-MECA, transfected HEK293 cell homogenate)
# condition.parameters: 10^-8 M test compound; [125I]AB-MECA 0.1 nM; read-out: The rate of inhibition (%) 10^-8 M
experimental.endpoint: inhibition at 0.01 µM (%)
Numbers only, in %.

For orientation, consider the following solved cases.
Q. Quick one: inhibition at 0.01 µM of CCOC(=O)/C=C/c1ccc(-c2nc3c([nH]2)C2=NCCCN2C(=O)N3CC)cc1 ?
A. 29

Q. Now give it for CCCN1C(=O)N2C[C@@H](C(C)C)N=C2c2[nH]c(-c3ccc(Br)cc3)nc21 too.
A. 84

Q. Now give it for CCN1C(=O)N2CCCN=C2c2[nH]c(-c3ccc(Br)cc3)nc21 too.
A. 29

Now let's try a different one.
Q. Quick one: inhibition at 0.01 µM of CCC1CN2C(=O)N(CC)c3nc(-c4ccc(/C=C/C(=O)O)cc4)[nH]c3C2=N1 (stereo not shown) ?
A. 36
